test system: Fer (mouse); assay: phosphorylation enrichment, bacterial display (enrichment ratio); higher = better substrate or ligand; peptides without Tyr show the background;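 also: 11-residue human phosphosite peptides and single-mutation variants displayed on the E. coli surface, counted by deep sequencing, each peptide's frequency after selection divided by its frequency in the unselected input library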;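 also: frequency after pTyr selection over input frequency; kinase dosed for 20-30% of maximal phosphorylation in three min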
Decide by phosphorylation enrichment: equal to or exceeding 0.4 means T, less means F.

Examples from the recorded data:
• GGQVFHNSEFG [FLT4_Y1333_Y1333H_YF] = F
• KNAEKYAEEDW [HSPA9_Y568_R573W] = T
• KDHPDYKYQLR [SOX10_Y171_P175L] = T
• FTRNFYVWAVL [CYBA_Y88_R90W_YF] = T
• IDDLEYLHSQG [STK11_Y166_G163D] = T

// query API: above_or_equal(metric=phosphorylation enrichment, cutoff=0.4) for item VLTSTYRGGGG [HBA1_Y141_K140T]
// result F

// query API: above_or_equal(metric=phosphorylation enrichment, cutoff=0.4) for item RRGTRYMSSRP [RPL21_Y13_F15S]
// result T

// query API: above_or_equal(metric=phosphorylation enrichment, cutoff=0.4) for item VIECSYTSADG [DHCR7_Y382]
// result T

// query API: above_or_equal(metric=phosphorylation enrichment, cutoff=0.4) for item GYCSWYRGWAP [TIMP3_Y195]
// result T

// query API: above_or_equal(metric=phosphorylation enrichment, cutoff=0.4) for item VLNHAYENLTR [SYNE2_Y3255_D3253H]
// result T

// query API: above_or_equal(metric=phosphorylation enrichment, cutoff=0.4) for item HRGSLYLAIEY [TEK_Y899_Y897S]
// result T

----------
biological target: Grb2 SH2 (UniProt P62993); assay: SH2 binding enrichment of the phosphorylated peptide, bacterial display (enrichment ratio); higher = better substrate or ligand; peptides without Tyr show the background
Sequence (P62993 whole entry, looked up): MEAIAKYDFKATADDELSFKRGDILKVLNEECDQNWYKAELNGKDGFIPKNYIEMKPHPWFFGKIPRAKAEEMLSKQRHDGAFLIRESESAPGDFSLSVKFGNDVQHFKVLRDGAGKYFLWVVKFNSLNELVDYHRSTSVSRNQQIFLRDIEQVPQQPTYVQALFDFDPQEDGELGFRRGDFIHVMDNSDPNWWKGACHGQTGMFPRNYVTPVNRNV
Value Kind: SH2 binding enrichment

Solved cases below.
- QPGTDYKIYLY [FN1_Y1970]: 0.741
- GFPVHYTDVSN [DNMT3B_Y815]: 0.793
- VAVVDYVEPSP [TXNRD2_Y70]: 0.792
- HQEPVYSVAFS [TBL1X_Y509]: 1.08
- DPLLTYWFPPK [LMNA_Y481_R482W]: 1.19

// query Fill in: SH2 binding enrichment of NTGFFYDLFGG [PTPN11_Y63_D61Y_YF] is ___
// result 1.51

// query Fill in: SH2 binding enrichment of CRWKRYQCSHD [GDPD5_Y30_R32C] is ___
// result 0.656

// query Fill in: SH2 binding enrichment of QQLDEYQKLLD [LMNA_Y359_E361K] is ___
// result 0.708

// query Fill in: SH2 binding enrichment of SAEEDYIADAK [KCNT1_Y876_M877I] is ___
// result 0.983

// query Fill in: SH2 binding enrichment of GLDGRYLLRDS [SH2D1A_Y29_S28R] is ___
// result 0.817

// query Fill in: SH2 binding enrichment of FSPGSNERETF [NF1_Y2192_Y2192N] is ___
// result 0.886

// query Fill in: SH2 binding enrichment of VFLARYGPAWR [CYP2D6_Y124] is ___
// result 0.948

// query Fill in: SH2 binding enrichment of VVSLFYGTALF [OR10C1_Y251_M246V] is ___
// result 0.713

// query Fill in: SH2 binding enrichment of GVRLYYRVRES [RB1_Y454_M457R] is ___
// result 0.769

// query Fill in: SH2 binding enrichment of SLDLSYYTTSS [EMD_Y181_P183T] is ___
// result 0.955
